What Kd was measured for each of the following?
Tested on: MBP-(ZF)x6 (designed chimera), Q01844-5+P47974+O95218+O95218+P52756+P47974
Sequence (P52756 whole entry, looked up, change not shown, chain 1 of 4): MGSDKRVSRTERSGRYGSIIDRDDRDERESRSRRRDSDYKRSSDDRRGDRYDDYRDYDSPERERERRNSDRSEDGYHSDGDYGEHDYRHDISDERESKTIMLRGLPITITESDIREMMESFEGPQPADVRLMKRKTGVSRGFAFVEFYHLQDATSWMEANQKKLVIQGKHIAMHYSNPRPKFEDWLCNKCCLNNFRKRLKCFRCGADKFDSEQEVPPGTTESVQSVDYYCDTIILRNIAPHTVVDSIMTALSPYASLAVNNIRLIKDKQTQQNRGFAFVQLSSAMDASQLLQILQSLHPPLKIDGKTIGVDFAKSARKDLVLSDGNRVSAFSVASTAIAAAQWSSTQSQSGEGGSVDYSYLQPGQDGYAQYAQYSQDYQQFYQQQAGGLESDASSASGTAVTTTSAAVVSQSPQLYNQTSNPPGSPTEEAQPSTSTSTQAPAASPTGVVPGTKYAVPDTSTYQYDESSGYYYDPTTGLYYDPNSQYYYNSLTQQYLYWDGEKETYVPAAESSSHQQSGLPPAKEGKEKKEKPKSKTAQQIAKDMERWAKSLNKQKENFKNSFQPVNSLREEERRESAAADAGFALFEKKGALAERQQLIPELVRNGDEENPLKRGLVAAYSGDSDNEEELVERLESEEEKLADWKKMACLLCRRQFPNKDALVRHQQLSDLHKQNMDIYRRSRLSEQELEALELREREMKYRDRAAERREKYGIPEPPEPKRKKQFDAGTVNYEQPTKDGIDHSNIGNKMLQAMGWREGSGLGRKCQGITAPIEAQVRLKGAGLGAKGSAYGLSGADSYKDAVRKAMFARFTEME
Sequence (P47974 whole entry, looked up, change not shown, chain 2 of 4): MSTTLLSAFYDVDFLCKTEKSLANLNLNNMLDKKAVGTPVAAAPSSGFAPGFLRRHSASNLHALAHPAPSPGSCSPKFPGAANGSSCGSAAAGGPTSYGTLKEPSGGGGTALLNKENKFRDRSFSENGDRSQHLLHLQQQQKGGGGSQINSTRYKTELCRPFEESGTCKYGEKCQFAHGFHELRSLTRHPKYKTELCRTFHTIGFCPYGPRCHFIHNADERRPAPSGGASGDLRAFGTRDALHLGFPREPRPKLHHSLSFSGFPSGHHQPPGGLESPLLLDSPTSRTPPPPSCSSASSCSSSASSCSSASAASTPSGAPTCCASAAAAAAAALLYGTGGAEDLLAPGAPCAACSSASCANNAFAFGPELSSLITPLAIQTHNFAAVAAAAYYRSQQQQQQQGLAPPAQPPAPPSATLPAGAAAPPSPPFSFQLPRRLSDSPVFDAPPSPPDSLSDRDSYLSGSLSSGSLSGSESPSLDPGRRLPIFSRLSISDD
Sequence (O95218 whole entry, looked up, change not shown, chain 3 of 4): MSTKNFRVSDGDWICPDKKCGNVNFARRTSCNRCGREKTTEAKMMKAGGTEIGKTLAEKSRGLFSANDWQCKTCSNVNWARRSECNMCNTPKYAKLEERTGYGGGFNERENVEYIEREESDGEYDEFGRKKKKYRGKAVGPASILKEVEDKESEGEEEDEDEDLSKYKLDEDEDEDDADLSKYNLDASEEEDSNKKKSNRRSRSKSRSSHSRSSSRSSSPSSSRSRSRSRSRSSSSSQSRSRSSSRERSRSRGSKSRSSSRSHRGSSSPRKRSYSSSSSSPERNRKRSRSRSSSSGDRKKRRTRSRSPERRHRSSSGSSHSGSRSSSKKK
Sequence (Q01844 whole entry, looked up, change not shown, chain 4 of 4): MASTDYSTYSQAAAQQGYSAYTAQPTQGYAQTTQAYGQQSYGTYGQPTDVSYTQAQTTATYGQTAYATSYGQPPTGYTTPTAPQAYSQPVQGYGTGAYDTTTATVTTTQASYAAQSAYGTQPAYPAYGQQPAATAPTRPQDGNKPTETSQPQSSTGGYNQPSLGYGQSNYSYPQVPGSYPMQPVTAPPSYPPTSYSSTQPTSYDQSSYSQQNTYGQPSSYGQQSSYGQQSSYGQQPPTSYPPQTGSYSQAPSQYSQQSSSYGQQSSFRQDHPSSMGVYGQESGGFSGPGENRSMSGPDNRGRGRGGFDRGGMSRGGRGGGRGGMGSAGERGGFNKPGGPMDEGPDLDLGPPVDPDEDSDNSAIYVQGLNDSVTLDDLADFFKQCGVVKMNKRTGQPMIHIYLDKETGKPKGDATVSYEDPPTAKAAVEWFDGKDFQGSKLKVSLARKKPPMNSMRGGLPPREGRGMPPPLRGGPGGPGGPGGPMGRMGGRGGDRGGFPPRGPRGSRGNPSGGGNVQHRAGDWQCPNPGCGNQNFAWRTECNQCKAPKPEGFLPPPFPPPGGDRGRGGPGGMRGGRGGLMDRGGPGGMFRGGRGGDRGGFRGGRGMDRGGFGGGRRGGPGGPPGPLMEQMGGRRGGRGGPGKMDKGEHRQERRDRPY
Assay: BLI
Details: ITC: 50 mM Tris pH 7.5, 150 mM NaCl, 1 mM DTT, 0.1 mM ZnCl2, 25 °C, BLI: 50 mM Tris pH 7.5, 150 mM NaCl, 0.1% BSA, 0.02% Tween, 30 °C
Give bare numbers, in µM.

> print(dat)
                              sequence.text  experimental.readout  result
1  AAAGGUUAUUGGUGCCGGGUAUUAAA [(ZF)x6 target]                    Kd   0.024

Proceed to the following item.
For AAAUAUUGGUGGGUAUUGCCGGUAAA [PT (permuted target)] , write its Kd.
0.223
